# Tested on: Kainate (Rat Brain)
# PROTOCOL DESCRIPTION: PDSP primary binding Kainate (Rat Brain)
# CONDITION DESCRIPTION: primary binding, 10,000 nM; last figure of the line = mean of the 4 before it
QUANTITY KIND: Kainate (Rat Brain), PDSP raw data, mean (%)
Give bare numbers, in %.

>>> endpoint_result("C#Cc1ccc2c(c1)C(c1ccccn1)=N[C@@H](C)c1c(C(=O)N(C)C)ncn1-2")
23.99

Field: Kainate (Rat Brain), PDSP raw data, mean. Fill in for each record below.
1. C[C@H]1N=C(c2ccccc2F)c2cc(Cl)ccc2-n2cnc(-c3nc(C4CC4)no3)c21
2. C#Cc1ccc2c(c1)C(c1ccccc1Cl)=N[C@H](C)c1c(C(=O)NC)ncn1-2
3. CCc1noc(-c2ncn3c2[C@@H](C)N=C(c2ccccc2F)c2cc(-c4ccccc4)ccc2-3)n1

A:
1: 36.46; 2: -4.58; 3: 33.32
